For reference, IC50 measured on Angiopoietin-1 receptor (Homo sapiens):
Give bare numbers, in µM.

1) COc1ccc(-c2ccc(NC(=O)Nc3cccc(C(F)(F)F)c3)cc2)c2c(N)noc12 :: 0.27
2) COc1ccc(-c2ccc(NC(=O)Nc3cc(C)ccc3F)cc2)c2c(N)noc12 :: 0.249

So for "COc1ccc(-c2ccc(NC(=O)Nc3cccc(Cl)c3)cc2)c2c(N)noc12" , the logged IC50 turned out to be 1

###

Consider the following compounds; for each one, report its IC50.
# SUBJECT OF TEST: Tyrosine-protein kinase Lyn (Homo sapiens)
# Sequence (P07948 whole entry): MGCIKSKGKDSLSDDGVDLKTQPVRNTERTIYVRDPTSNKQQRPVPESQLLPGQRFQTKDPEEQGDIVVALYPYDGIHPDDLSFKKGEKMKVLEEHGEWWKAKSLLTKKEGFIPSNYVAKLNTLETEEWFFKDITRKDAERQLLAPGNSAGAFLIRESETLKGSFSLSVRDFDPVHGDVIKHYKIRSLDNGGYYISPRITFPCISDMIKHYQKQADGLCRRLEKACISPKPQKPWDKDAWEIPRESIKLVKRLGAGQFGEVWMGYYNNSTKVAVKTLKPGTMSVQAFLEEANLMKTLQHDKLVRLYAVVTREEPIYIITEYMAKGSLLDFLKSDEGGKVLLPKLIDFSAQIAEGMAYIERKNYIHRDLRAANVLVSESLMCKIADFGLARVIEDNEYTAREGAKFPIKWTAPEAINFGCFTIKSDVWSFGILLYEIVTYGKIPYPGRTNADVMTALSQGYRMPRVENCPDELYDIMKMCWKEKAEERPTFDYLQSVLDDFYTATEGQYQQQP

The examples below pair each entry with its known result.
1) COc1ccc(-c2ccc(NC(=O)Nc3cccc(C(F)(F)F)c3)cc2)c2c(N)noc12 :: > 50 µM
2) COc1ccc(-c2ccc(NC(=O)Nc3cc(C)ccc3F)cc2)c2c(N)noc12 :: > 50 µM

Form: compound = "Cc1ccc(F)c(NC(=O)Nc2ccc(-c3cccc4[nH]nc(N)c34)cc2)c1" ; IC50 = > 50 µM
